These measurements were taken from ChEMBL document CHEMBL5038679.

Answer each item with its documented pKi.
pKi: −log10 of the molar value.

# returns recorded pKi (system: UniProt:P23975) for CN1CC[C@@]23CCCC[C@@H]2[C@@H]1Cc1ccc(C(C)(F)F)cc13
# Sequence (P23975 whole entry): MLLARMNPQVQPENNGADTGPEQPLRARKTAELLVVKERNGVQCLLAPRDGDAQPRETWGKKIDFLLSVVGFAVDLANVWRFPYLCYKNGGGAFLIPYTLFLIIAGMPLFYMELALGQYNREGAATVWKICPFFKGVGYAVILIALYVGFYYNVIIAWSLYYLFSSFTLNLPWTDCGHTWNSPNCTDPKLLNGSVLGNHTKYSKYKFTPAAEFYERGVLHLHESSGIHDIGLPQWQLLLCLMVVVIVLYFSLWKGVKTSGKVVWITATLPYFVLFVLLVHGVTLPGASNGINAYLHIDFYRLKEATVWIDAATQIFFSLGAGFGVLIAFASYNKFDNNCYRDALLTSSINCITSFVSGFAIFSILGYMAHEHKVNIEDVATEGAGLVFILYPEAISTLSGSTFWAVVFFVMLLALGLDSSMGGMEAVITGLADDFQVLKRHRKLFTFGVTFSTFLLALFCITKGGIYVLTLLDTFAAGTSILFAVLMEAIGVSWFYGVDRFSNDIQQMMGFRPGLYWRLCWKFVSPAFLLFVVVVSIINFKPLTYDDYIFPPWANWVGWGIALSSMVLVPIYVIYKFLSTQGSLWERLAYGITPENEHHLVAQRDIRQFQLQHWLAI
< 5.00

# returns recorded pKi (system: UniProt:P23975) for CN1CC[C@@]23CCCC[C@@H]2[C@@H]1Cc1ccc(OC(F)F)cc13
< 5.00

# returns recorded pKi (system: UniProt:P23975) for CN1CC[C@@]23CCCC[C@@H]2[C@@H]1Cc1ccc(OC(F)(F)F)cc13
< 5.00

# returns recorded pKi (system: UniProt:P23975) for CN1CC[C@@]23CCCC[C@@H]2[C@@H]1Cc1ccc(C(F)(F)C(F)(F)F)cc13
< 5.00

# returns recorded pKi (system: UniProt:P23975) for CN1CC[C@@]23CCCC[C@@H]2[C@@H]1Cc1ccc(C(F)F)cc13
7.46

# returns recorded pKi (system: UniProt:P23975) for COc1ccc2c(c1)[C@@]13CCCC[C@@H]1[C@@H](C2)N(C)CC3
< 5.00

# returns recorded pKi (system: UniProt:P23975) for CN1CC[C@]23CCCC[C@@H]2[C@H]1Cc1ccc(O)cc13
< 6.47

# returns recorded pKi (system: UniProt:P23975) for CN1CC[C@@]23CCCC[C@@H]2[C@@H]1Cc1ccc(C(F)(F)F)cc13
< 5.00
